meta.source: patent US20250326771A1

testSystem: cIAP2-BIR3 (Homo sapiens (Human))
Sequence (Q13489 238-349): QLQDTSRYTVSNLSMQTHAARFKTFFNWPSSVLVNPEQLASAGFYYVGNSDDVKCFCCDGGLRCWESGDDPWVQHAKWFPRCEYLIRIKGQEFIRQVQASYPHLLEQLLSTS
assayName: BIR binding assay (FRET competition), cIAP2 BIR3
Protocol: The BIR domain binding assays are FRET based competition assays that utilize His-tagged versions of each of the BIR2 and BIR3 domains from cIAP1, cIAP2, and XIAP (each domain assayed separately) each at a custom optimal concentration and a probe, 200 nM SMAC/DIABLO peptide […] labelled with AlexaFluor647 (part #crb 1110326h, Discovery Peptides). The assay is conducted in 50 mM HEPES, […], 1 mM CHAPS, 5% Glycerol, 1 mM DTT, in dI water with a final pH of 7.4 and final volume of 20 uL. […]
# key: entry, value: IC50

sampleSmiles: C[C@@H]1CN(CC(=O)N2CC(C)(C)c3[nH]c(=O)c(Cc4ccc(F)cc4)cc32)[C@@H](CN2CCO[C@H](C(=O)NCC3CCN(C(=O)[C@@H]4CN(C[C@H]5CN[C@H](C)CN5CC(=O)N5CC(C)(C)c6[nH]c(=O)c(Cc7ccc(F)cc7)cc65)CCO4)CC3)C2)CN1
IC50: 7.94 to 15.8 nM

Let us move to another entry and its IC50.
In: Looking for the measured IC50 of `C[C@@H]1CN(CC(=O)N2CC(C)(C)c3[nH]c(=O)c(Cc4ccc(F)cc4)cc32)[C@@H](CN2CCC(CCCC3CCN(C[C@H]4CN[C@H](C)CN4CC(=O)N4CC(C)(C)c5[nH]c(=O)c(Cc6ccc(F)cc6)cc54)CC3)CC2)CN1` , can you help?
Out: 7.94 to 15.8 nM
